- Tested on: human mast cell line HMC-1 (LPA receptor LPAR5)
- measurement_notes: FLIPR assay, intracellular Ca2+ release in human mast cell line HMC-1
- Format: cell-based
- condition_notes: HMC1, LPA-stimulated Ca2+ release, HMC-1 cells, compound added 10 minutes prior to LPA
readout_type: IC50 (nM)

(A) Cc1c(COC(C)(C)C(=O)NCc2ccc(C(=O)O)cc2)nn(-c2ccc(Cl)cc2Cl)c1-c1ccc(Cl)cc1 [Example 9]
(B) Cc1c(COC(C)C(=O)Nc2ccc(C(=O)O)cc2)nn(-c2ccccc2Cl)c1-c1ccc(C(F)(F)F)cc1 (stereo not shown) [Example 20]
Could you tell me which of these two has the smaller IC50 figure? First: A Second: B Response format: the label of the selected entry.
A

(a) Cc1c(COC(C)(C)C(=O)NCc2ccc(C(=O)O)cc2)nn(-c2ccccc2Cl)c1-c1ccc(C(F)(F)F)cc1 [Example 13]
(b) Cc1c(COC(C(=O)Nc2ccc(C(=O)O)cc2)C(C)C)nn(-c2ccc(Cl)cc2Cl)c1-c1ccc(Cl)cc1 (stereo not shown) [Example 17]
Could you tell me which of these two has the smaller IC50 figure? First: a Second: b Response format: the label of the selected entry.
a
(a: 1300 nM, b: 4200 nM)

---

- System: human mast cell line HMC-1 (LPA receptor LPAR5)
- measurement_notes: FLIPR assay, intracellular Ca2+ release in human mast cell line HMC-1
- Format: cell-based
- condition_notes: HMC1, LPA-stimulated Ca2+ release, HMC-1 cells, compound added 10 minutes prior to LPA
- Source text: B) Use of the Fluorometric Imaging Plate Reader (FLIPR) Assay for the Determination of Intracellular Ca^2+ Release in Human Mast Cell Line HMC-1 and the Murine Microglia cell line BV-2 The ability of the compounds of the formula Ito inhibit or bind the LPA receptor LPAR5 can be assessed by determining the intracellular Ca^2+ release in human or animal cells. […]
readout_type: IC50 (µM)

Field: example entries. Status: answers known.
molecule: Cc1c(COC2(C(=O)O)CCCC2)nn(-c2ccc(Cl)cc2Cl)c1-c1ccc(Cl)cc1
measurement_unit: µM
IC50: 8.8

molecule: CC(OCc1cn(-c2ccccc2)nc1-c1ccccc1)C(=O)Nc1ccc(C(=O)O)cc1 (stereo not drawn)
measurement_unit: µM
IC50: 16

molecule: Cc1c(COC(C)(C)C(=O)NCc2ccc(C(=O)O)cc2)nn(-c2ccc(Cl)cc2Cl)c1-c1ccc(C(F)(F)F)cc1
measurement_unit: µM
IC50: 0.03

molecule: Cc1c(COC(C)C(=O)NCc2ccc(C(=O)O)cc2)nn(-c2ccc(Cl)cc2Cl)c1-c1ccc(Cl)cc1 (stereo not drawn)
measurement_unit: µM
IC50: 8.8

(1) CCC(OCc1nn(-c2ccc(Cl)cc2Cl)c(-c2ccc(Cl)cc2)c1C)C(=O)O (stereo not drawn)
(2) Cc1c(COC(C)C(=O)Nc2ccc(C(=O)O)cc2)nn(-c2ccc(Cl)cc2)c1-c1ccc(C(F)(F)F)cc1 (stereo not drawn)
Which has the higher IC50, 1 or 2 ? Response format: the label of the selected entry.
1
(1: 11.4 µM, 2: 3.8 µM)

---

- Tested on: human mast cell line HMC-1 (LPA receptor LPAR5)
- measurement_notes: FLIPR assay, intracellular Ca2+ release in human mast cell line HMC-1
- Format: cell-based
- condition_notes: HMC1, LPA-stimulated Ca2+ release, HMC-1 cells, compound added 10 minutes prior to LPA
readout_type: IC50 (µM)

compound: CCC(OCc1nn(-c2ccc(Cl)cc2Cl)c(-c2ccc(Cl)cc2)c1C)C(=O)NCc1ccc(C(=O)O)cc1 (stereo not shown)
readout_type: IC50
recorded_value: 6.3
--
compound: Cc1c(COCC(=O)NCc2ccc(C(=O)O)cc2)nn(-c2ccc(Cl)cc2Cl)c1-c1ccc(Cl)cc1
readout_type: IC50
recorded_value: 8.6

(A) Cc1c(COC(C)C(=O)O)nn(-c2ccc(Cl)cc2Cl)c1-c1ccc(Cl)cc1 (stereo not shown)
(B) Cc1c(COC(C)C(=O)Nc2ccc(C(=O)O)cc2)nn(-c2ccc(Cl)cc2Cl)c1-c1ccc(C(F)(F)F)cc1 (stereo not shown)
Could you tell me which of these two has the smaller IC50 figure? First: A Second: B Response format: the label of the selected entry.
B

(I) Cc1c(COC(C)(C)C(=O)O)nn(-c2ccc(Cl)cc2Cl)c1-c1ccc(Cl)cc1
(II) Cc1c(COC(C)(C)C(=O)NCc2ccc(C(=O)O)cc2)nn(-c2ccc(Cl)cc2)c1-c1ccc(C(F)(F)F)cc1
Which has the higher IC50, I or II ? Response format: the label of the selected entry.
I
(I: 8.3 µM, II: 3.4 µM)
